Entries with reported VYR Assay CC50 on human airway epithelial (HAE) cells
measuredMetric: VYR Assay CC50

1. CNc1nc(N)nc2c1ncn2[C@@H]1O[C@H](CO[P@@](=O)(N[C@@H](C)C(=O)OC(C)C)Oc2ccccc2)[C@@H](O)[C@]1(F)CO [Compound 9] | no visual tox
2. CC(C)OC(=O)[C@H](C)NP(=O)(OC[C@H]1O[C@@H](n2cnc3c(NC4CC4)nc(N)nc32)[C@@](F)(CO)[C@@H]1O)Oc1ccccc1 (stereo partly shown) [Compound 10] | no visual tox
3. CNc1nc(N)nc2c1ncn2[C@@H]1O[C@H](CO[P@@](=O)(N[C@@H](C)C(=O)OC(C)C)Oc2ccccc2)[C@@H](O)[C@]1(F)C(F)(F)F [Compound 11A] | no visual tox

###

- assayNotes: in vitro
- experimentalSetup: human
Would you kindly list CC50 for each of these molecules?
Note: unit µM is implicit; provide only the numeric part.

Input CCN(CCO)CCCC(C)Nc1ccnc2cc(Cl)ccc12 (centres unmarked) [hydroxychloroquine] . Output CC50: 26

Input CCN(CC)CCCC(C)Nc1ccnc2cc(Cl)ccc12 (centres unmarked) . Output CC50: 21

###

Would you kindly list Cmax for each of these compounds?
- assayNotes: Plasma PK in non-human primates after oral Compound 2A
- experimentalSetup: monkey plasma, oral Compound 2A 60 mg/kg then 30 mg/kg every 12 h, steady state
Note: unit nM is implicit; provide only the numeric part.

Input CNc1nc(N)nc2c1ncn2[C@@H]1O[C@H](CO[P@@](=O)(N[C@@H](C)C(=O)OC(C)C)Oc2ccccc2)[C@@H](O)[C@@]1(C)F . Output Cmax: 640

Input C[C@@]1(F)[C@H](O)[C@@H](CO)O[C@H]1n1cnc2c(=O)[nH]c(N)nc21 . Output Cmax: 160

###

- Tested on: Huh7 cells
- assayNotes: Visual cytotoxicity in uninfected Huh7 cells
- Assay type: cell-based, human
- experimentalSetup: Beta-OC43 row
measuredMetric: CC50

So the reported CC50 for CNc1nc(N)nc2c1ncn2[C@@H]1O[C@H](CO[P@@](=O)(N[C@@H](C)C(=O)OC(C)C)Oc2ccccc2)[C@@H](O)[C@@]1(C)F [Compound 1A] , on Huh7 cells, turned out to be > 50 µM

###

- assayNotes: in vivo
- experimentalSetup: male, cynomolgus monkey, Mean Intracellular Compound 1-6 Concentration
measuredMetric: concentration at 24 h (nM)
Note: unit nM is implicit; provide only the numeric part.

Input C[C@@]1(F)[C@H](O)[C@@H](COP(=O)(O)OP(=O)(O)OP(=O)(O)O)O[C@H]1n1cnc2c(=O)[nH]c(N)nc21 . Output concentration at 24 h: 32

Data origin: patent US12551499B2
